Entries and their fraction ligated
B1: F1*; the commonest letter at each place (parent)
chain: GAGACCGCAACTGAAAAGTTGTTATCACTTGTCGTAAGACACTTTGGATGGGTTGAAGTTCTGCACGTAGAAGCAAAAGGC

Variants of: B1
test-description: fraction ligated after 30 min (ligated reads / total reads); higher = more ligase activity
assay-conditions: with F1*sub RNA substrate (template-directed ligation), 42 °C
property-measured: fraction ligated

* C26A T44C | 0.782
* T23G A27T | 0.801
* T32C T43G | 0.729
* G34T A39C | 0.779
* T29G C40A | 0.84
* T35G | 0.839
* A27G T45A | 0.694
* A36G A48C | 0.773
* A24T T45G | 0.0472
* G31C T44A | 0.775
* T25G A39G | 0.759
* T30A A39T | 0.81
* T25C A27G | 0.796
* C42G T49G | 0.777
* C26G T44C | 0.731
* C26T G46A | 0.835
* T25A T43C | 0.286
* T35C G50C | 0.437
* G31C G46A | 0.797
* A27T A36G | 0.862
* C33G G46T | 0.811
* T35G A37T | 0.846
* C33T G38A | 0.857
* C26A A39T | 0.721
* C26A A41T | 0.768
* G47T G55C | 0.0359
* G34T G50T | 0.767
* C40G G47A | 0.783
* T35A A48G | 0.801
* A24C G38A | 0.508
* T32A T45A | 0.763
* T29A G34C | 0.816
* T23G A36C | 0.882
* C33A G50C | 0.0908
* C28A T43A | 0.799
* A37G T43A | 0.867
* A41G C42A | 0.85
* T32C T45C | 0.217
* T43G G55T | 0.765
* C26A G46C | 0.744
* T30A T44C | 0.828
* C26T T45C | 0.524
* C26G T29A | 0.789
* G38A A41T | 0.793
* C42A T49A | 0.797
* T29G A56G | 0.749
* A27T T49A | 0.76
* T29A C42A | 0.86
* T29C | 0.824
* T30A T43C | 0.794
* T35C G38A | 0.856
* G38C T44C | 0.819
* A39C A48C | 0.0845
* T23G T25G | 0.738
* T23C T35C | 0.818
* A36T T44C | 0.82
* A48T A56T | 0.0621
* C26G C42G | 0.7
* A41G G46A | 0.791
* A24T T43C | 0.621
* T29C T32A | 0.804
* T30A G47A | 0.793
* T29C A39G | 0.824
* G34A T45A | 0.797
* A37T C42G | 0.849
* T32G T44C | 0.795
* C26G | 0.773
* C26G T43G | 0.479
* T23A A37T | 0.811
